# Test system: Hedgehog Signaling Pathway
# procedure.details: SHH-induced differentiation of C3H10T1/2 cells into osteoblastic cells, intracellular alkaline phosphatase activity
# Type: cell-based, mouse
# stated.conditions: Mus musculus, C3H 10T1/2, 120 h, 10 nM SHH-N, 5 days, alkaline phosphatase activity (OD405), read-out: IC50 values of compounds that inhibit Hh pathway
# Procedure: The Application of SHH to Induce Pluripotent Mesenchymal Mouse Embryonic Cell C3H10T1/2 to Differentiate into Osteoblastic Cells for the Determination of the Inhibitory Activity of N-(3-(1H-benzo[d]imidazol-2-yl)-4-chlorophenyl)-2-methyl-4-((2S,6R)-2,6-dimethylmorpholino)benzamide and Analogs on Hedgehog Signaling Pathway […] After incubating for 5 days, the cells were taken out and intracellular alkaline phosphatase activity was tested. The alkaline phosphatase activity was measured as follows: […]
Readings of log10 IC50 for the listed molecules
Short version: log10 scale, IC50, nM.

Please review the entries below; each comes with its answer.
Challenge: Data request, read-out log10 IC50, for C[C@@H]1CN(c2ccc(C(=O)Nc3ccc(Cl)c(-c4cn5ccsc5n4)c3)c(Cl)c2)C[C@H](C)N1C
Response given: 1.97

Challenge: Would you kindly share the measured log10 IC50 for Cc1ccc(-c2cnc(-c3cc(NC(=O)c4ccc(-c5ccc(C(F)(F)F)cc5)cc4C)ccc3Cl)[nH]2)cc1 ?
Response given: 0.28

Challenge: What measured log10 IC50 goes with Cc1cc(N2C[C@@H](C)N(C)[C@@H](C)C2)ccc1C(=O)Nc1ccc(Cl)c(-c2ncc(C(C)C)[nH]2)c1 ?
Response given: -0.66

***
Challenge: Any idea what log10 IC50 was measured for C[C@@H]1CN(c2ccc(C(=O)Nc3ccc(Cl)c(-c4ncc(-c5ccc(Cl)s5)[nH]4)c3)cc2Cl)C[C@H](C)N1C ?
Response given: 1.18

Challenge: Quick one: log10 IC50 for CCN1[C@H](C)CN(c2ccc(C(=O)Nc3ccc(Cl)c(-c4nc5ccccc5[nH]4)c3)c(C)c2)C[C@@H]1C ?
Response given: 0.36

Challenge: Data request, read-out log10 IC50, for Cc1ccc(NC(=O)c2ccc(N3C[C@@H](C)N(C)[C@@H](C)C3)cc2Cl)cc1-c1nc2ccc(F)cc2[nH]1
Response given: 1.49

Challenge: Name the recorded log10 IC50 for Cc1cc(N2C[C@@H](C)N(C)[C@@H](C)C2)ccc1C(=O)Nc1ccc(Cl)c(-c2ncc(C3CCCC3)[nH]2)c1 .
Response given: 1.34

Challenge: For Cc1cc(N2CCN(C)CC2)ccc1C(=O)Nc1ccc(Cl)c(-c2nc3ccccc3[nH]2)c1 , what is its reported log10 IC50?
Response given: 1.65

Challenge: Would you mind telling me what log10 IC50 value was observed for Cc1cc(N2C[C@@H](C)N(C)[C@@H](C)C2)ccc1C(=O)Nc1ccc(Cl)c(-c2ncc(C(C)(C)C)[nH]2)c1 ?
Response given: 1.04

Challenge: Can you share its log10 IC50? I mean this molecule: Cc1cc(-c2cccc(C#N)c2)ccc1C(=O)Nc1ccc(Cl)c(-c2nc3ccccc3[nH]2)c1
Response given: 0.23

Challenge: Given CC(C)N1[C@H](C)CN(c2ccc(C(=O)Nc3ccc(Cl)c(-c4nc5ccccc5[nH]4)c3)c(Cl)c2)C[C@@H]1C , state its recorded log10 IC50.
Response given: 0.08

====

# System: Hedgehog Signaling Pathway
# procedure.details: SHH-induced differentiation of C3H10T1/2 cells into osteoblastic cells, intracellular alkaline phosphatase activity
# Assay type: cell-based, mouse
# stated.conditions: Mus musculus, C3H 10T1/2, 120 h, 10 nM SHH-N, 5 days, alkaline phosphatase activity (OD405), read-out: IC50 values of compounds that inhibit Hh pathway
measurement.type: IC50 (nM)
Record the value in nM, omitting the unit from your answer.

See these solved cases before continuing.
Challenge: For the compound Cc1cc(-c2ccc(C(F)(F)F)cc2)ccc1C(=O)Nc1cc(-c2nc3ccccc3[nH]2)cc(C(F)(F)F)c1 , what IC50 is on record?
Response given: 409

Challenge: Record request: IC50 value, item C[C@@H]1CN(c2ccc(C(=O)Nc3cnc(Cl)c(-c4nc5ccccc5[nH]4)c3)cn2)C[C@H](C)N1C
Response given: 1.7

Challenge: Can you share its IC50? I mean this compound: C[C@@H]1CN(c2ccc(C(=O)Nc3ccc(Cl)c(-c4nc5ccncc5[nH]4)c3)c(Cl)c2)C[C@H](C)N1C
Response given: 54

Challenge: Give its IC50 value. Item: Cc1cc(C(=O)Nc2ccc(Cl)c(-c3nc4ccccc4[nH]3)c2)ccc1N1C[C@@H](C)N(C)[C@@H](C)C1
Response given: 23

Challenge: Given C[C@@H]1CN(c2ccc(C(=O)Nc3ccc(Cl)c(-c4nc5ccccc5[nH]4)c3)c(Cl)c2)C[C@H](C)N1C , state its recorded IC50.
Response given: 0.81

---
Challenge: # lookup: IC50 of C[C@@H]1CN(c2ccc(C(=O)Nc3ccc(Cl)c(-c4ncc(-c5cccs5)[nH]4)c3)c(C(F)(F)F)c2)C[C@H](C)N1C
Response given: 0.11

Challenge: Item C[C@@H]1CN(c2ccc(C(=O)Nc3ccc(Cl)c(-c4ncc(C5CCCCC5)[nH]4)c3)c(Cl)c2)C[C@H](C)N1C has what recorded IC50?
Response given: 28

====

Below, each entry is listed with its recorded pIC50.
# Tested on: Hedgehog Signaling Pathway
# procedure.details: SHH-induced differentiation of C3H10T1/2 cells into osteoblastic cells, intracellular alkaline phosphatase activity
# Type: cell-based, mouse
# stated.conditions: Mus musculus, C3H 10T1/2, 120 h, 10 nM SHH-N, 5 days, alkaline phosphatase activity (OD405), read-out: IC50 values of compounds that inhibit Hh pathway
API: returns pIC50 as number; meaning -log10 of concentration in mol/L.

Record excerpt, results attached:
Challenge: Item C[C@@H]1CN(c2ccc(C(=O)Nc3ccc(Cl)c(-c4ncc(-c5nccs5)[nH]4)c3)c(Cl)c2)C[C@H](C)N1C has what recorded pIC50?
Response given: 7.47

Challenge: Given the compound C[C@@H]1CN(c2cc(Cl)c(C(=O)Nc3ccc(Cl)c(-c4nc5ccccc5[nH]4)c3)cn2)C[C@H](C)O1 , what is its reported pIC50?
Response given: 7.02

Challenge: May I ask what pIC50 has been recorded for CN1CCN(c2ccc(C(=O)Nc3ccc(Cl)c(-c4nc5ccccc5[nH]4)c3)cn2)CC1 ?
Response given: 7.40

Continuing:
Challenge: Tell me the measured pIC50 of C[C@@H]1CN(c2cc(Cl)c(C(=O)Nc3ccc(Cl)c(-c4ncc(-c5ccco5)[nH]4)c3)cc2F)C[C@H](C)N1C , please.
Response given: 9.57

Challenge: // lookup pIC50 for Cc1cc(-c2ccc(C(F)(F)F)cc2)ccc1C(=O)Nc1ccc(Cl)c(-c2ncc(-c3ccccc3)[nH]2)c1
Response given: 8.10

Challenge: Recorded pIC50 of COc1ccc(-c2ccc(C(=O)Nc3ccc(Cl)c(-c4nc5ccccc5[nH]4)c3)c(C)c2)cn1 , please.
Response given: 8.15

Challenge: Would you kindly share the measured pIC50 for Cc1cc(-c2cccnc2)ccc1C(=O)Nc1ccc(Cl)c(-c2nc3ccccc3[nH]2)c1 ?
Response given: 7.89

====

# Tested on: Hedgehog Signaling Pathway
# procedure.details: Gli-Luc reporter gene cell assay in C3H10T1/2/Gli-Luc cells stimulated with Shh
# Format: cell-based, mouse
# stated.conditions: Mus musculus, C3H 10T1/2, 24 h, 30 nM Shh, luciferase activity (RLU), read-out: IC50 values of compounds that inhibit Hh pathway
Structures can show the parent of a compound that is named as a salt.
measurement.type: IC50 (pM)
Write the answer as a number in pM, unit excluded.

Here is how some compounds turned out for IC50.
Challenge: # query: IC50 | item Cc1cc(N2C[C@@H](C)N(C)[C@@H](C)C2)ccc1C(=O)Nc1ccc(Cl)c(-c2ncc(C3CC3)[nH]2)c1 | system: Hedgehog Signaling Pathway
Response given: 670

Challenge: API: value(readout=IC50, system=Hedgehog Signaling Pathway) for record C[C@@H]1CN(c2ccc(C(=O)Nc3ccc(Cl)c(-c4nc5ccncc5[nH]4)c3)c(Cl)c2)C[C@H](C)N1C
Response given: 5700

***
Challenge: Which measured IC50 belongs to Cc1c(C(=O)Nc2ccc(Cl)c(-c3ncc(C(C)C)[nH]3)c2)ccc(N2C[C@@H](C)N(C)[C@@H](C)C2)c1F [Example 190, Dihydrochloride] , tested on Hedgehog Signaling Pathway?
Response given: 200

====

# System: Hedgehog Signaling Pathway
# procedure.details: SHH-induced differentiation of C3H10T1/2 cells into osteoblastic cells, intracellular alkaline phosphatase activity
# Type: cell-based, mouse
# stated.conditions: Mus musculus, C3H 10T1/2, 120 h, 10 nM SHH-N, 5 days, alkaline phosphatase activity (OD405), read-out: IC50 values of compounds that inhibit Hh pathway
Listing of entries alongside the reported IC50.

For orientation, consider the following solved cases.
Challenge: Which value of IC50 has been reported for Cc1ccc(NC(=O)c2ccc(N3C[C@@H](C)N(C)[C@@H](C)C3)cc2Cl)cc1-c1nc2ccc(Cl)cc2[nH]1 in the records?
Response given: > 10000 nM

Challenge: Quick check: IC50 of C[C@@H]1CN(c2ccc(C(=O)Nc3ccc(Cl)c(-c4ncc(C5CC5)[nH]4)c3)c(C(F)(F)F)c2)C[C@H](C)N1C ?
Response given: 0.3 nM

Challenge: Entry C[C@@H]1CN(c2ccc(C(=O)Nc3ccc(Cl)c(-c4nc5ccccc5[nH]4)c3)c(F)c2)C[C@H](C)N1C has what IC50?
Response given: 13 nM

Challenge: Need IC50, item O=C(Nc1ccc(Cl)c(-c2nc3ccccc3[nH]2)c1)c1ccc(-c2ccc(C(F)(F)F)cc2)cc1F
Response given: 15 nM

Challenge: Fill in: IC50 of C[C@@H]1CN(c2ccc(C(=O)Nc3ccc(Cl)c(-c4ncccn4)c3)c(Cl)c2)C[C@H](C)N1C is ___
Response given: > 10000 nM

Challenge: Record request: IC50 value, item Cc1cc(N2C[C@@H](C)N(C)[C@@H](C)C2)ccc1C(=O)Nc1ccc(Cl)c(-c2ncc(C3CC3)[nH]2)c1
Response given: 1 nM

Okay, next one:
Challenge: Tell me the measured IC50 of Cc1cc(-c2ccc(C(F)(F)F)cc2)ccc1C(=O)Nc1ccc(Br)c(-c2nc3ccccc3[nH]2)c1 , please.
Response given: 2.9 nM

Data credit: patent US10676468B2
